Test system: Lefty1
assay.text: Lefty1 binders on small-molecule microarrays, primary screen, biochemical, small-molecule microarray, 635/667 nm fluorescence (AID 1139)
run.conditions: small-molecule microarray binding, fluorescence 635/667; higher = more signal
value.kind: composite z-score

Recorded composite z-score, per entry:
CC(C)(C)OC(=O)CC[C@]1(C(=O)O)N=C(c2ccc(OCCCO)cc2)O[C@H]1c1ccccc1CN=[N+]=[N-]: -0.482
COc1ccc([Si](C)(C)[C@H]2[C@H](CCn3cc([C@H](O)c4ccccc4)nn3)O[C@@]3(C(=O)N(Cc4cccc(N5C(=O)c6cccc7cccc5c67)c4)c4ccccc43)[C@@H]2C)cc1: -1.36

Continue with the compound presented below.
Fill in the blank: the reported composite z-score of C=CCNC(=O)[C@@H]1[C@H]2C(=O)O[C@H](c3ccccc3)[C@H](c3ccccc3)N2[C@H](c2ccc(OCCO)cc2)[C@@]12C(=O)N(C(=O)OCCOC)c1ccc(C#CC3=CCCCC3)cc12 is ____.
1.05
